test system: KM20L2 colon; experiment: NCI tumour cell line growth inhibition, 48 h
quantity-name: TGI

| molecule | value-reported |
| --- | --- |
| CSc1cccc(-n2c3nc(=O)n(C)c(=O)c-3nc3ccccc32)c1 | 15.4 µM |
| O=C(O)C1=CCCc2ccc3ccccc3c21 | > 100 µM |
| O=S(=O)(N/N=C/c1ccc(Cl)c(Cl)c1)c1ccccc1 | > 100 µM |
| CC(=O)O[C@@]12CO[C@@H]1C[C@H](O)[C@@]1(C)C(=O)[C@H](O)C3=C(C)[C@@H](OC(=O)[C@H](O)[C@@H](NC(=O)OC(C)(C)C)c4ccccc4)C[C@@](O)([C@@H](OC(=O)c4ccccc4)[C@H]21)C3(C)C | 0.022 µM |
| Cc1ccccc1C1OC(=O)c2ccccc21 (centres undefined) | > 100 µM |
| COc1ccc2c(c1)C(=O)N1CCOC1C2C(=O)O (centres undefined) | > 100 µM |
| O=C(CCC(=O)Nc1cccc(Cl)c1)CC(=O)c1ccc(F)cc1 | > 100 µM |
| CC1(Cl)CC2OC3(Br)C=CC(C)(O)C2(CC1Br)C3(C)C (centres undefined) | > 100 µM |

Would you please give the reported TGI of `COc1ccc(/C(Cl)=C(/c2ccc(O)cc2)c2ccc(OCCN(C)C)cc2)cc1` with KM20L2 colon?
11.7 µM

Would you please give the reported TGI of `CC[O-].CC[O-].O=C([CH-]C(=O)c1cccnc1)c1ccccc1.O=C([CH-]C(=O)c1cccnc1)c1ccccc1.[Ti+4]` with KM20L2 colon?
> 100 µM

Would you please give the reported TGI of `CCN(CC)c1ccc(/C=C2/C[N+](C)(C)C/C(=C/c3ccc(N(CC)CC)cc3)C2=O)cc1` with KM20L2 colon?
12.9 µM

Would you please give the reported TGI of CCCCCCCCCCCCCCCc1ccc(OCC(O)CO)cc1 (centres undefined) with KM20L2 colon?
94.4 µM

Would you please give the reported TGI of Cc1oc2c(C)c3oc(=O)cc(C)c3cc2c1CNC(=O)[C@@H]1OCCOCCOCCOCCOCCOC1C(=O)O (some centres undefined) with KM20L2 colon?
> 100 µM

Would you please give the reported TGI of `Nc1ccc2nc(NCc3ccc(F)cc3)cnc2c1` with KM20L2 colon?
> 100 µM

###

test system: MDA-MB-231 breast; assay: NCI tumour cell line growth inhibition, 48 h
quantity-name: TGI

| compound | TGI |
| --- | --- |
| CC/C(=C(/c1ccc(OCCN(C)C)cc1)c1ccc(OC(=O)CCC(=O)c2c(C)[nH]c(/C=C3\N=C(c4ccc[nH]4)C=C3OC)c2C)cc1)c1ccccc1 | 2.38 µM |

Give the measured TGI for O=C1c2cccnc2C(=O)C2C3C=CC(C3)C12 (stereo unspecified)
9.97 µM

Give the measured TGI for `CCOC(=O)[C@]12C(=C(c3ccccc3)O[C@H]3C=CCC[C@H]31)C(=O)C(=O)N2c1ccccc1`
> 100 µM

Give the measured TGI for `Cc1nc2ccc(Cl)cc2c2c1CCS2`
> 100 µM

Give the measured TGI for `C#CCN(Cc1nc2cc(C(F)(F)F)ccc2nc1-c1ccccc1)c1ccc(OC(F)(F)F)cc1`
> 100 µM

Give the measured TGI for `COc1cc2cc(C(=O)CCC(=O)O)sc2cc1OC`
> 100 µM

Give the measured TGI for `O=C(Nc1ccccc1)c1nn(-c2cc(S(=O)(=O)O)c([N+](=O)[O-])cc2Cl)[n+](-c2cc(S(=O)(=O)[O-])c([N+](=O)[O-])cc2Cl)n1`
94 µM

Give the measured TGI for CC1=NOC2(C1)C(=O)Nc1ccccc12 (stereo unspecified)
> 100 µM

Give the measured TGI for `CC(C)CCC[C@@H](C)[C@H]1CC[C@H]2[C@@H]3CC[C@H]4C[C@H](N)CC[C@]4(C)[C@H]3CC[C@]12C`
8.22 µM

Give the measured TGI for `C#CCn1ncc2c(SC)ncnc21`
> 100 µM

Give the measured TGI for `Cn1c(N)c(C(N)=O)[nH]c1=S`
> 100 µM

###

Overview of reported GI50 across a group of molecules:
system: CAKI-1 renal; assay: NCI tumour cell line growth inhibition, 48 h

| smi | target-of-assay | GI50 |
| --- | --- | --- |
| COc1cc(-n2cc(-c3ccc(F)cc3)nc2SCc2ccccc2)cc(OC)c1OC | CAKI-1 renal | > 100 µM |

Give the measured GI50 for `Cn1cc(C2=C(c3cn(CCO)c4ccccc34)C(=O)NC2=O)c2ccccc21`
3.79 µM

Give the measured GI50 for `N/C(=C\C(=O)n1nc(-c2ccccc2)cc1N)c1ccccc1`
5.96 µM

Give the measured GI50 for `Cc1ccc2c(c1)c1nc3cc(C)c(C)cc3nc1n2CCN(C)C`
1.33 µM

Give the measured GI50 for `O=S(=O)(Cc1ccc(Cl)cc1Cl)c1ccc(Cl)cc1`
0.52 µM

Give the measured GI50 for `COc1cc2cc(C(=O)CCC(=O)O)sc2cc1OC`
> 100 µM

###

Overview of reported TGI across a group of molecules:
test system: A498 renal; assay: NCI tumour cell line growth inhibition, 48 h

Use these answered entries as a reference point.
| molecule | target-of-assay | value-reported |
| --- | --- | --- |
| NC(=O)c1cccc(C2OC(COP(=O)(O)O)C(O)C2O)c1 (configuration not stated) | A498 renal | > 50 µM |
| O=S(=O)(N/N=C/c1ccc(Cl)c(Cl)c1)c1ccccc1 | A498 renal | 92.5 µM |
| CCOC(=O)c1c(-c2ccccc2)oc(-c2ccccc2)c1C(=O)OCC | A498 renal | > 100 µM |
| Cc1ccc(O)c(C(c2ccc([N+](=O)[O-])cc2)c2cc(C)ccc2O)c1 | A498 renal | 43 µM |
| CCCOC(=O)C1CCC(=O)N1C(=O)C(C)Cl (configuration not stated) | A498 renal | > 100 µM |

Would you please give the reported TGI of `N#Cc1cccc(OCc2nc(N)nc(N)c2-c2ccc(Cl)c(Cl)c2)c1` with A498 renal?
> 100 µM

Would you please give the reported TGI of `CC(C)Nc1ccc(Nc2ccccc2)cc1` with A498 renal?
> 100 µM

###

test system: TK-10 renal; test: NCI tumour cell line growth inhibition, 48 h
quantity-name: GI50

Use these answered entries as a reference point.
| compound | value-reported |
| --- | --- |
| CN(Cc1ccc(Cl)cc1)c1ccc(CO)c(Cl)c1 | 0.268 µM |
| COc1cc(-c2nc3sccn3c2-c2ccnc(NCCNS(=O)(=O)c3ccc(Cl)cc3)n2)ccc1F | 9.44 µM |
| N#Cc1ncc(-c2ccc(C(F)(F)F)cc2)c(NCc2cc(C(F)(F)F)cc(C(F)(F)F)c2)n1 | 5.84 µM |

Give the measured GI50 for `CC/C(=C(/c1ccc(OCCN(C)C)cc1)c1ccc(OC(=O)CCC(=O)c2c(C)[nH]c(/C=C3\N=C(c4ccc[nH]4)C=C3OC)c2C)cc1)c1ccccc1`
4.87 µM

Give the measured GI50 for `Cn1ccnc1C(=O)/C=C/c1ccc(C(=O)Nc2ccc(S(F)(F)(F)(F)F)cc2)cc1`
4 µM

Give the measured GI50 for COc1cc2c(cc1OCCCCCOc1cc3c(cc1OC)C(=O)N1CC(F)C[C@H]1C=N3)N=C[C@@H]1CC(F)CN1C2=O (stereo partly drawn)
1.98 µM

Give the measured GI50 for `N#C/C(=N\Nc1ccc(Cl)cc1)C(=O)Nc1cc(-c2ccccc2)nn1-c1ccccc1`
4.82 µM

Give the measured GI50 for O=C1C2C(C(=O)[N]1[Hg][c]1cccs1)C1(Cl)C(Cl)=C(Cl)C2(Cl)C1(Cl)Cl (stereo not drawn)
1.65 µM

###

system: SF-295 CNS; assay: NCI tumour cell line growth inhibition, 48 h
Overview of reported GI50 across a group of molecules:

| smi | GI50 |
| --- | --- |
| COc1cc(-c2nc3sccn3c2-c2ccnc(NCCNS(=O)(=O)c3ccc(Cl)cc3)n2)ccc1F | 4.07 µM |

Give the measured GI50 for `COc1cc(-n2cc(-c3ccc(F)cc3)nc2SCc2ccccc2)cc(OC)c1OC`
> 100 µM

Give the measured GI50 for `O=c1ccc(N=Nc2ccc([N+](=O)[O-])cc2)ccc1O`
4.57 µM

Give the measured GI50 for `Nc1ccccc1-c1ccc([N+](=O)[O-])cc1`
2.18 µM

Give the measured GI50 for `COc1cc2cc(C(=O)CCC(=O)O)sc2cc1OC`
> 100 µM

Give the measured GI50 for `CCOc1ccccc1NC(=O)c1cc2ccccc2cc1O`
2.84 µM

###

Overview of reported TGI across a group of compounds:
test system: HCT-15 colon; assay: NCI tumour cell line growth inhibition, 48 h

Use these answered entries as a reference point.
| compound | TGI |
| --- | --- |
| C=C(C)C1Cc2c(cc(OC)c3c(=O)c4cccc(O)c4oc23)O1 (stereo unspecified) | > 100 µM |
| Cc1n[nH]c(=O)n1C1CCCC1 | > 100 µM |
| Nc1cc(C(=O)O)[nH]c(=O)n1 | > 100 µM |

Give the measured TGI for `S=c1nc(Cc2ccc(Cl)cc2)[nH][nH]1`
> 100 µM

Give the measured TGI for CO/C=C(/C(=O)OC)c1ccccc1[C@@H]1CC1c1cccc(F)c1 (stereo partly specified)
78.1 µM

Give the measured TGI for CCC1C(=O)OCc2c1cc1n(c2=O)Cc2cc3ccccc3nc2-1 (stereo unspecified)
> 100 µM

Give the measured TGI for COc1ccc(NC(=O)CC(=O)N2N=C(c3ccccc3)C(N=Nc3ccc(S(=O)(=O)CCOS(=O)(=O)O)cc3)C2=O)cc1 (stereo unspecified)
> 100 µM

Give the measured TGI for `CSc1cccc(-n2c3nc(=O)n(C)c(=O)c-3nc3ccccc32)c1`
23.3 µM

Give the measured TGI for `CCCN1CC=C(c2cc(C(=O)OCC)[nH]c2-c2cc(C)no2)C1=O`
> 100 µM

Give the measured TGI for Cc1ccc(NP(=O)(Oc2ccccc2)N(CCCl)CCCl)cc1 (stereo unspecified)
> 100 µM

Give the measured TGI for CC(=O)O[C@]12CCCCC1C1(O)C(O)CCCCC12 (stereo partly specified)
> 100 µM

Give the measured TGI for CS(=O)(=O)OCC1OC(n2ccc(NC(=O)c3ccccc3)nc2=O)CC1OS(C)(=O)=O (stereo unspecified)
> 100 µM

Give the measured TGI for `C/C=C1/CN2CCc3c([nH]c4ccccc34)[C@@H]2C[C@@H]1Cc1[nH]ccc2c1[nH]c1cc(=O)ccc12`
10.6 µM

Give the measured TGI for `O=C(Nc1nc(C23CC4CC(CC(C4)C2)C3)cs1)c1c(O)c2ccccc2[nH]c1=O`
> 100 µM

Give the measured TGI for `O=S(=O)(N/N=C/c1ccc(Cl)c(Cl)c1)c1ccccc1`
> 100 µM

Give the measured TGI for `CC(C)CCC[C@@H](C)[C@H]1CC[C@H]2[C@@H]3CC[C@H]4C[C@H](N)CC[C@]4(C)[C@H]3CC[C@]12C`
96.2 µM

Give the measured TGI for `CCOCN1COCN=C1NC#N`
> 100 µM

Give the measured TGI for `COc1cc(-c2cc(=O)c3c(OC)c(OC)c(OC)cc3o2)c(OC)c(OC)c1OC`
> 75 µM
